test_description: Thermodynamic solubility of the compound at pH 3
Format: physicochemical
test_context: buffer
measure_name: solubility thermodynamic (µg/mL)
Express the result in µg/mL but write the number alone.

Below: 2 compounds and their reported solubility thermodynamic.
1) Cc1cc(-c2cccc(C3=Nc4cc(C)c(C(F)(F)F)cc4NC(=O)C3)c2)ccn1 | 45
2) Cc1cc2c(cc1C(F)(F)F)NC(=O)CC(c1cccc(-c3ccncc3)c1)=N2 | 5

Challenge: Give reported solubility thermodynamic value for Cc1cc(-c2cccc(C3=Nc4cc(C)c(C(F)(F)F)cc4NC(=O)C3)c2)cc(C)n1
Response given: 64

---

measured_on: Metabotropic glutamate receptor 2 (Rattus norvegicus, UniProt P31421)
Sequence (P31421 whole entry): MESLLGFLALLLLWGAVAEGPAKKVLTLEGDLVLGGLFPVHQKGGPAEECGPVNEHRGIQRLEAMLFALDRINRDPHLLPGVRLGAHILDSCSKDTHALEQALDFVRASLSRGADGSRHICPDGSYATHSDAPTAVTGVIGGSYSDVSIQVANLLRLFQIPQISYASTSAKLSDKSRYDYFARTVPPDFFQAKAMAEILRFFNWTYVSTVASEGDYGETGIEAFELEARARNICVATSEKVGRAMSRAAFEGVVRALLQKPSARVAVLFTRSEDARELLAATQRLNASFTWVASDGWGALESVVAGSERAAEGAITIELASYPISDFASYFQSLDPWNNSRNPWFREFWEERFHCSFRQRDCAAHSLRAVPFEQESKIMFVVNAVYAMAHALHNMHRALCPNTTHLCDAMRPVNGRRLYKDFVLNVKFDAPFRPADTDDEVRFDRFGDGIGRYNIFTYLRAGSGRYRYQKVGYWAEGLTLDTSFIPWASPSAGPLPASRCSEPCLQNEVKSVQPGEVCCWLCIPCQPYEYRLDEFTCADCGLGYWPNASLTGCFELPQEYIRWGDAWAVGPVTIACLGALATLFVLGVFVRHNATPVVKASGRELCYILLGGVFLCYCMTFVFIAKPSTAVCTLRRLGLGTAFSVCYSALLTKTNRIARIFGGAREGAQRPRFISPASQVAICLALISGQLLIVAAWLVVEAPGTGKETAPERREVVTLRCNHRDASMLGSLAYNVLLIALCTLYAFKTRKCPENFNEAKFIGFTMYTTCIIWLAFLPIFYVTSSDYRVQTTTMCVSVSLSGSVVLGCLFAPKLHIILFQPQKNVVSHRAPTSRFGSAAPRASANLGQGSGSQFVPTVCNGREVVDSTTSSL
test_description: Antagonist activity at recombinant rat mGluR2 expressed in forskolin-stimulated CHO cells assessed as inhibition of (1S,3R)-ACPD induced cAMP production
Type: functional, cell-based
Attribute: IC50
Report the figure in nM without appending any unit label.

1. Cc1ccc(-c2cccc(C3=Nc4cc(C)c(C(F)(F)F)cc4NC(=O)C3)c2)cn1 | 5

Challenge: Find the measured IC50 of Cc1cc2c(cc1C(F)(F)F)NC(=O)CC(c1cccc(-c3ccccn3)c1)=N2 and report it.
Response given: 30

Challenge: Identify measured IC50 corresponding to Cc1cc(-c2cccc(C3=Nc4cc(C)c(C(F)(F)F)cc4NC(=O)C3)c2)cc(CO)n1
Response given: 15

Challenge: Input Cc1cc2c(cc1C(F)(F)F)NC(=O)CC(c1cccc(-c3ccnc(CO)c3)c1)=N2 , output reported IC50.
Response given: 18
